- Experiment description: Phase 1 SAD (Part A) plasma and urine pharmacokinetics in healthy subjects
- Format: in vivo, human
- Study conditions: human, plasma, po, 300 mg, plasma, single oral dose 300 mg, n = 6; read-out: AUCinf, mean (SD)
Assay readout: AUC(0-inf) (ng·h/mL)
Numbers only here, please. The scale is ng·h/mL.

IN: What AUC(0-inf) value was documented for this molecule, CN(C)C/C=C/C(=O)N1CC(COc2cc(-c3ccc(O)cc3)cc3[nH]ncc23)C1 [compound of formula (I)] ?
OUT: 24.6

---

- Experiment description: Phase 1 MAD (Part B) plasma pharmacokinetics in healthy subjects
- Type: in vivo, human
- Study conditions: both sexes, human, plasma, oral, 100 mg, plasma, Day 10 (morning dose), 100 mg BID, n = 6; read-out: Cmax,ss, mean (SD)
Assay readout: Cmax (ng/mL)
Field: numeric (ng/mL). Do not append units.

IN: Entry under review: CN(C)C/C=C/C(=O)N1CC(COc2cc(-c3ccc(O)cc3)cc3[nH]ncc23)C1 . Reported Cmax?
OUT: 1.7

---

- Experiment description: Phase 1 SAD (Part A) plasma and urine pharmacokinetics in healthy subjects
- Type: in vivo, human
- Study conditions: both sexes, human, plasma, oral; single dose of 2000 mg; read-out: average Cmax
Assay readout: Cmax (ng/mL)
Express your answer in ng/mL, writing the number without its unit.

IN: # query: Cmax of entry CN(C)C/C=C/C(=O)N1CC(COc2cc(-c3ccc(O)cc3)cc3[nH]ncc23)C1 [compound of formula (I)]
OUT: 10

---

- Experiment description: Phase 1 SAD (Part A) plasma and urine pharmacokinetics in healthy subjects
- Type: in vivo, human
- Study conditions: human; plasma, single oral dose 2000 mg, n = 6; read-out: Cmax, mean (SD)
Assay readout: Cmax (ng/mL)
Reply numerically in ng/mL, unit not repeated.

IN: Any idea what its Cmax is? The compound is CN(C)C/C=C/C(=O)N1CC(COc2cc(-c3ccc(O)cc3)cc3[nH]ncc23)C1
OUT: 10.1

---

- Experiment description: Phase 1 SAD (Part A) plasma and urine pharmacokinetics in healthy subjects
- Assay type: in vivo, human
- Study conditions: human; plasma, single oral dose 2000 mg, n = 6; read-out: Tmax, median (min, max)
Assay readout: Tmax
The reply must contain the numeric value and, after it, the unit.

IN: Entry CN(C)C/C=C/C(=O)N1CC(COc2cc(-c3ccc(O)cc3)cc3[nH]ncc23)C1 : reported Tmax = ?
OUT: 2 h

---

- Experiment description: Phase 1 MAD (Part B) plasma pharmacokinetics in healthy subjects
- Assay type: in vivo, human
- Study conditions: human, oral; plasma, Day 1 (morning dose), 300 mg BID, n = 6; read-out: Tmax, median (min, max)
Assay readout: Tmax (h)
# unit: h | format: bare number

IN: Please look up its Tmax: CN(C)C/C=C/C(=O)N1CC(COc2cc(-c3ccc(O)cc3)cc3[nH]ncc23)C1
OUT: 1

---

- Experiment description: Phase 1 MAD (Part B) plasma pharmacokinetics in healthy subjects
- Assay type: in vivo, human
- Study conditions: both sexes, human, oral; plasma, Day 10 (morning dose), 100 mg BID, n = 6; read-out: t1/2, mean (SD) (converted)
Assay readout: half-life (h)
Hi! Could you send only the number? It should be in h, unit omitted.

IN: Need half-life, item CN(C)C/C=C/C(=O)N1CC(COc2cc(-c3ccc(O)cc3)cc3[nH]ncc23)C1 [compound of formula (I)]
OUT: 19.8
